Exercise: for every item that follows, state its recorded inhibition at 0.1 µM.
# experimental-target: human vasopressin V2 receptor subtype (Homo sapiens)
# Construct: host or cells: CHO cells, stably transfected (pZeoSV vector)
# Sequence (P30518 whole entry): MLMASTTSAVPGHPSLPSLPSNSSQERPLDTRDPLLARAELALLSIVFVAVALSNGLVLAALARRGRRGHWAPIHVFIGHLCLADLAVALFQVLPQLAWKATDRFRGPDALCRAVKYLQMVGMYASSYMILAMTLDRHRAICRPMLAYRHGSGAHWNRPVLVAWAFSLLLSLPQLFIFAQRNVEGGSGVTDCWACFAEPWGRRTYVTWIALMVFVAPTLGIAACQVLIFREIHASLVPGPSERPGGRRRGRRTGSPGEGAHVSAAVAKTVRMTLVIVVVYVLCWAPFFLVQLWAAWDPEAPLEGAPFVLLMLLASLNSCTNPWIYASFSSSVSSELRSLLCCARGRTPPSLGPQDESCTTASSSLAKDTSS
# procedure-text: Vasopressin binding in CHO cell membranes expressing human vasopressin V2 subtype receptors ([3H]arginine vasopressin radioligand binding)
# details: 100 nM
Field: numeric (%). Do not append units.

In: Form field: reported inhibition at 0.1 µM of Cc1ccccc1-c1ccc(C(=O)N2Cc3ccc(C(=O)NCc4cccnc4)n3Cc3ccccc32)cc1
Out: 11

In: Next record, please: O=C(NCc1ccccn1)c1ccc2n1Cc1ccccc1N(C(=O)c1ccc(-c3cccc4ccccc34)cc1Cl)C2
Out: 5

In: Next record, please: COc1cccc(-c2ccc(C(=O)N3Cc4ccc(C(=O)NCc5cccnc5)n4Cc4ccccc43)cc2OC)c1
Out: 8

In: Next record, please: COc1ccccc1-c1ccc(C(=O)N2Cc3ccc(C(=O)NCc4ccncc4)n3Cc3ccccc32)cc1C
Out: 13

In: Next record, please: COc1ccccc1-c1ccc(C(=O)N2Cc3ccc(C(=O)NCc4ccccn4)n3Cc3ccccc32)cc1C
Out: 26

In: Next record, please: O=C(NCc1ccncc1)c1ccc2n1Cc1ccccc1N(C(=O)c1ccc(-c3cccc4ccccc34)cc1Cl)C2
Out: 12

In: Next record, please: COc1cc(C(=O)N2Cc3ccc(C(=O)N4CCN(c5ccccn5)CC4)n3Cc3ccccc32)ccc1-n1c(C)ccc1C
Out: 2

In: Next record, please: COc1cc(C(=O)N2Cc3ccc(C(=O)NCc4ccccn4)n3Cc3ccccc32)ccc1-c1cccc2ccccc12
Out: 31

In: Next record, please: Cc1ccccc1-c1ccc(C(=O)N2Cc3ccc(C(=O)N(C)CCc4ccccn4)n3Cc3ccccc32)cc1
Out: 13

In: Next record, please: COc1ccccc1-c1ccc(C(=O)N2Cc3ccc(C(=O)NCc4cccnc4)n3Cc3ccccc32)cc1OC
Out: 19

In: Next record, please: O=C(c1ccc2n1Cc1ccccc1N(C(=O)c1ccc(-c3cccc4ccccc34)cc1Cl)C2)N1CCN(c2ccncc2)CC1
Out: 18

In: Next record, please: COc1cccc(-c2cc(OC)c(C(=O)N3Cc4ccc(C(=O)N5CCN(c6ccccn6)CC5)n4Cc4ccccc43)cc2Cl)c1
Out: 8

In: Next record, please: COc1cccc(-c2cc(OC)c(C(=O)N3Cc4ccc(C(=O)N5CCN(c6ccncc6)CC5)n4Cc4ccccc43)cc2Cl)c1
Out: 16
